From: the supplement of paper PMC7125110

B1: glmS ribozyme (parent)
chain: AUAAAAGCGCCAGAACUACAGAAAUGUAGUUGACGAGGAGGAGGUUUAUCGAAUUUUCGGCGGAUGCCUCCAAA

Variants of: B1
ASSAY_REMARKS: self-cleavage kobs at 10000 uM GlcN6P; higher = faster cleavage; RNA array
TEST_CONDITIONS: with glucosamine-6-phosphate
Fewer inactive variants are shown than the library holds.
Assign class by self-cleavage kobs at 10000 uM GlcN6P: not lower than 0.0002 s⁻¹ means t; lower than 0.0002 s⁻¹ means f.

Example entries begin here.
AUAAAAGCGCCAUAACUACAGAAAUGUAGGUGACGAGGAGGAGGUUUAUCGAAUUUUCGGCGGAUGCCUCCAAA: f
AUAAAUGCGCCAGAGCUACAGAAAUGUAGUUGACGAGGAGGAGGUUUAUCGAGUUUUCGGCGGAUGCCUCCAAA: t
AUAAAAGCGCCAGAACUACAGAAAUGUAGUUGACAAGGAGGGGGUUUAUCGAAUUUUCGGCGGAUGCCUCCAAA: f
AUAAAAGCGCCAGAACUACAGAAAUGUAGUUGACGAGAAGGAGGUUUAUCGAAUUUUAGGCGGAUACCUCCAAA: f
AUAAAAGCGCCAGAACUACAGAAAUGUAGUUGACGCGGAGGAGGUUUAGCGAGUUUUCGGCGGAUGCCUCCAAA: t

Is the recorded value of self-cleavage kobs at 10000 uM GlcN6P equal to or greater than 0.0002 s⁻¹ for this variant? AUAAAAGCGCCAGAGCUACAGAAAUGUAGUUGACGAGGAGGAAGUUUAUCGAAUUUUCGGCGGAUGCCUCCAAA
f

Kindly determine if self-cleavage kobs at 10000 uM GlcN6P recorded for AUAAAAGCGCCAGAACUACAGAAAUGUAGUUGACGAGGAGGAGGUUUCUCGAAUUUUCGGCGGAUACCUCCAAA is above or exactly 0.0002 s⁻¹.
f

Hi team, for AUAAAAGCGCCAGGACUACAGAAAUGUAGUUGACGAGGAGGAGGUUUAUCGAAUGUUCGGCGGAUUCCUCCAAA , is the recorded self-cleavage kobs at 10000 uM GlcN6P at or above 0.0002 s⁻¹?
t

Item AUAAAAGCGCCAGAACUACAGAAAUGUAGUUGAGGAGGAGGAGUUUUAUCGAAUUUUCGGCGGAUGCCUCCAAA with self-cleavage kobs at 10000 uM GlcN6P of 0.0002 s⁻¹ or above?
f

Check this variant for self-cleavage kobs at 10000 uM GlcN6P at or above 0.0002 s⁻¹: AUAAAAACGCCAGAUCUACAGAAAUGUAGUUGACGAGGAGGAGGUUUAUCGAAUUUUAGGCGGAUGCCUCCAAA
f

Hi team, for AUAAAGGCGCCAGAACUACAGAAAUGUAGUUGACGAGGAGGAGAUUUAUCGAAUUUUCGGCGGAUGCCUCAAAA , is the recorded self-cleavage kobs at 10000 uM GlcN6P at or above 0.0002 s⁻¹?
f

Does AUAAAAGCGCGAGAACUACAGAAAUGUAGUUGACCAGGAGGAGGUUUAUCGAAUUUUCGGCGGAUGCCUCCAAA have a reported self-cleavage kobs at 10000 uM GlcN6P of at least 0.0002 s⁻¹?
f

Item AUAAAAGCGCCAGAACUACAGAAAUGUAGUUGACGAGGAGGAGGUUUAUCGAAUUUUCGGCGGGUGCCUCCAAA with self-cleavage kobs at 10000 uM GlcN6P of 0.0002 s⁻¹ or above?
t

Form field: self-cleavage kobs at 10000 uM GlcN6P at least 0.0002 s⁻¹? Entry: AUAAAAGCGCCAGAGCUACAGAAAUGUAGUUGACGAGGAGGAGGUUUAUCGAAUUUUCGGCGGACGCCUCCAAA
t
